Where do these numbers come from? They come from PubChem BioAssay AID720554.

- Tested on: acyl-homoserine lactone synthase BmaI1 (Burkholderia mallei ATCC 23344)
- EXPERIMENTAL_DETAILS: BmaI1 acyl-homoserine lactone synthase inhibition – biochemical, fluorescence intensity, with counterscreen (AID 720554)
- TEST_SETTINGS: BmaI1 enzyme assay, hits give high values, concentration not given here
Among all 12,000 compounds or so, about 45 (0.4%) were called active. What follows is part of a selection rich in actives, with near analogues and random picks from the rest.
Kindly supply the reported inhibition values for the records listed here.
One number for each entry, in %.

Sample answers from the record:
{"MOLECULE": "Cc1ccc(C(=O)NCCN2C(=O)S/C(=C\\c3ccc(F)cc3)C2=O)cc1NC(=O)c1ccco1", "MEASUREMENT_TYPE": "inhibition", "NUMBER": 6.5}
{"MOLECULE": "Nc1nc2cc(S(=O)(=O)N3CCOCC3)ccc2o1", "MEASUREMENT_TYPE": "inhibition", "NUMBER": 2.5}
{"MOLECULE": "CC1(C)CC(NCc2cc(Cl)c3c(c2)OCCCO3)CC(C)(C)N1", "MEASUREMENT_TYPE": "inhibition", "NUMBER": 10}
{"MOLECULE": "Cc1csc(C(C#N)C(=O)CSc2ccc3c(c2)OCCO3)n1 (configuration not stated)", "MEASUREMENT_TYPE": "inhibition", "NUMBER": 16}
{"MOLECULE": "CC(C)c1nc(C#N)c(NCc2cccnc2)o1", "MEASUREMENT_TYPE": "inhibition", "NUMBER": 31}

Please give inhibition, item by item, for the list that follows.
1. Cc1sc2ncnc(N)c2c1C
2. CCOC(=O)C1CCN(Cn2c(=S)oc3ccc(S(=O)(=O)CC)cc32)CC1
3. CC(C)Sc1nc2ccccc2n1CN1CCN(c2ccccn2)CC1
4. CN1/C(=C2\C=NN(C)P2(=S)N2CCCC2)C(C)(C)c2ccccc21 (configuration not stated)
5. COP1(=S)/C(=C2/N(C)c3ccccc3C2(C)C)C=NN1C (configuration not stated)
6. O=C1NC(C(=O)O)Cc2ccccc21 (configuration not stated)

1. 89.5
2. 5
3. 9
4. 15
5. 88
6. 15

Name the reported inhibition value associated with the molecule O=C1c2ccccc2C(=O)N1/N=C/c1ccc(-c2ccccc2Br)o1 4.5
